test: Toxicity liver stage against HepG2, at 10uM; type: cell-based; parameters: test concentration 10 uM, cell line HepG2-A16-CD81EGFP; settings: human, HepG2-A16-CD81EGFP cells; read-out: INHIBITION

>  <compound>
CCOc1nc2cccnc2n(CC(=O)NCCOC)c1=O

>  <unit.of.measure>
%

>  <cytotoxicity at 10 µM>
-7.84

$$$$
>  <compound>
CC(NCC1(N(C)C)CCOCC1)c1ccc(Cl)cc1 (stereo not drawn)

>  <unit.of.measure>
%

>  <cytotoxicity at 10 µM>
-3.19

$$$$
>  <compound>
CC(C)N1CCC(C(=O)N(C)CC(=O)c2ccc(O)cc2)CC1

>  <unit.of.measure>
%

>  <cytotoxicity at 10 µM>
-4.33

$$$$

---

test: Toxicity liver stage against HepG2, at 10uM; format: cell-based; set-up: test concentration 10 uM, cell line HepG2-A16-CD81EGFP; conditions: human, HepG2-A16-CD81EGFP cells; read-out: INHIBITION

>  <compound>
Cc1nc2cc(O)nn2c(C)c1CCC(=O)NCCc1nccn1C

>  <unit.of.measure>
%

>  <cytotoxicity at 10 µM>
-0.84

$$$$
>  <compound>
O=C(NCCc1ccccc1)c1cccc(S(=O)(=O)NC2CCOC2)c1 (stereo unspecified)

>  <unit.of.measure>
%

>  <cytotoxicity at 10 µM>
3.52

$$$$
>  <compound>
CCOc1ccc(C(=O)N(CCOC)Cc2c(C)nn(CC)c2C)o1

>  <unit.of.measure>
%

>  <cytotoxicity at 10 µM>
-2.99

$$$$
>  <compound>
Cc1oc(CNC(=O)Cc2cccc(OC(F)F)c2)cc1C(=O)O

>  <unit.of.measure>
%

>  <cytotoxicity at 10 µM>
7.04

$$$$
>  <compound>
O=C(Cc1ccon1)N1CCN(c2ccc(F)cc2Cl)CC1

>  <unit.of.measure>
%

>  <cytotoxicity at 10 µM>
1.02

$$$$
>  <compound>
O=C(NCCc1ccccn1)C1(n2cnnn2)CCCCC1

>  <unit.of.measure>
%

>  <cytotoxicity at 10 µM>
0.801

$$$$

---

# key: entry, value: cytotoxicity at 10 µM
test: Toxicity liver stage against HepG2, at 10uM; assay type: cell-based; set-up: test concentration 10 uM, cell line HepG2-A16-CD81EGFP; conditions: human, HepG2-A16-CD81EGFP cells; read-out: INHIBITION

>  <compound>
O=C1CCC2(CCCN(C(=O)Cc3cccnc3)C2)N1 (centres undefined)

>  <cytotoxicity at 10 µM [%]>
6.88

$$$$
>  <compound>
N#Cc1ccc(NCCCN2C(=O)COc3ccccc32)nc1

>  <cytotoxicity at 10 µM [%]>
11

$$$$
>  <compound>
CCOC(=O)CC(c1cccc(OC)c1OC)c1c(C)[nH][nH]c1=O (centres undefined)

>  <cytotoxicity at 10 µM [%]>
0.0535

$$$$
>  <compound>
CCOC(=O)[C@H]1CNC[C@H]1C(=O)OCC

>  <cytotoxicity at 10 µM [%]>
9.24

$$$$
>  <compound>
Cc1cnn(CCNCc2nc(-c3ccccc3Cl)no2)c1

>  <cytotoxicity at 10 µM [%]>
-9.91

$$$$
>  <compound>
CCOCc1nc2c(c(N3CC=CC3)n1)CCN(C1CCOCC1)CC2

>  <cytotoxicity at 10 µM [%]>
-25.2

$$$$
>  <compound>
CCO[C@@H]1CC[C@H]2[C@H]1OCCN2CC1CCC1

>  <cytotoxicity at 10 µM [%]>
11.2

$$$$
>  <compound>
N#Cc1cn(C2CC2)c(=O)n(CC(O)c2ccc(Cl)cc2)c1=O (centres undefined)

>  <cytotoxicity at 10 µM [%]>
-5.78

$$$$
>  <compound>
COCCN1C[C@H]2CN(Cc3cccc(OC)c3)CCN2C1=O

>  <cytotoxicity at 10 µM [%]>
7.91

$$$$

---

# key: entry, value: cytotoxicity at 10 µM
assay: Toxicity liver stage against HepG2, at 10uM; format: cell-based; set-up: test concentration 10 uM, cell line HepG2-A16-CD81EGFP; details: human, HepG2-A16-CD81EGFP cells; read-out: INHIBITION

>  <compound>
Cc1nc2n(n1)CC(Nc1cc(C(F)(F)F)nc3ncnn13)CC2 (stereo unspecified)

>  <cytotoxicity at 10 µM, %>
-1.27

$$$$
>  <compound>
O=C(Cc1cccnc1)NC1COc2ccccc2C1=O (stereo unspecified)

>  <cytotoxicity at 10 µM, %>
-3.77

$$$$
>  <compound>
CCc1ccc(C(=O)N2CCN(CCO)CC2)o1

>  <cytotoxicity at 10 µM, %>
-5.22

$$$$
>  <compound>
Cc1nc(NCc2ccco2)nc2c1COCC21CCNC1 (stereo unspecified)

>  <cytotoxicity at 10 µM, %>
10.3

$$$$
>  <compound>
CC(=O)N1N=C(c2ccncc2)OC1C(=O)N(C)CCc1ccccc1 (stereo unspecified)

>  <cytotoxicity at 10 µM, %>
12.9

$$$$
>  <compound>
CN1CCC(N2CC[C@H](c3nc4ccc(C(F)(F)F)cc4[nH]3)C2)CC1

>  <cytotoxicity at 10 µM, %>
-10.2

$$$$

---

# key: entry, value: cytotoxicity at 10 µM
assay: Toxicity liver stage against HepG2, at 10uM; type: cell-based; set-up: test concentration 10 uM, cell line HepG2-A16-CD81EGFP; conditions: human, HepG2-A16-CD81EGFP cells; read-out: INHIBITION

>  <molecule>
Cc1ccc(CN2CCN(c3cc(NCCO)ncn3)CC2CCO)o1 (stereo unspecified)

>  <unit.of.measure>
%

>  <cytotoxicity at 10 µM>
7.11

$$$$
>  <molecule>
Cc1n[nH]c(C)c1-c1cnc(CC2CCCN(S(C)(=O)=O)C2)cn1 (stereo unspecified)

>  <unit.of.measure>
%

>  <cytotoxicity at 10 µM>
-7.3

$$$$
>  <molecule>
O=S(=O)(CCOc1ccc(F)cc1)Nc1cnn(CC(F)F)c1

>  <unit.of.measure>
%

>  <cytotoxicity at 10 µM>
-4.87

$$$$
>  <molecule>
Cc1cn(CCn2ccnc2-c2sccc2C)nn1

>  <unit.of.measure>
%

>  <cytotoxicity at 10 µM>
15.9

$$$$
>  <molecule>
CN(Cc1cc(=O)c(O)co1)C1CCCN(c2ccccc2)C1 (stereo unspecified)

>  <unit.of.measure>
%

>  <cytotoxicity at 10 µM>
-3.17

$$$$
>  <molecule>
CN(Cc1cnn(C)c1)C(=O)C1COCC(=O)N1Cc1ccccc1 (stereo unspecified)

>  <unit.of.measure>
%

>  <cytotoxicity at 10 µM>
-4.33

$$$$
>  <molecule>
CCC[C@H]1CN(CCS(C)(=O)=O)C[C@@H]1NC(=O)Cn1cc(C)cn1

>  <unit.of.measure>
%

>  <cytotoxicity at 10 µM>
2.72

$$$$
>  <molecule>
CC(C)(C)c1noc(CCC(=O)N2CCN(Cc3ccco3)CC2)n1

>  <unit.of.measure>
%

>  <cytotoxicity at 10 µM>
6.11

$$$$
>  <molecule>
COc1ccnc(CN2CCC(O)(c3ccc(C)cn3)CC2)c1OC

>  <unit.of.measure>
%

>  <cytotoxicity at 10 µM>
-138

$$$$
>  <molecule>
CC(C)CNC(=O)[C@H]1C[C@H]2CN(Cc3cccnc3)C[C@@H]1O2

>  <unit.of.measure>
%

>  <cytotoxicity at 10 µM>
-1.16

$$$$
>  <molecule>
COc1ccc2[nH]nc(CN3CCC(C(=O)N4CCCCC4)CC3)c2c1

>  <unit.of.measure>
%

>  <cytotoxicity at 10 µM>
-2.03

$$$$
>  <molecule>
c1coc(CN2CCC3(CC2)COC(COCC2CC2)C3)c1 (stereo unspecified)

>  <unit.of.measure>
%

>  <cytotoxicity at 10 µM>
-4.37

$$$$
>  <molecule>
Cc1ccccc1CN(C)C(=O)CCc1nc(-c2nnc[nH]2)no1

>  <unit.of.measure>
%

>  <cytotoxicity at 10 µM>
-42.1

$$$$
>  <molecule>
CCc1ccc(CN(Cc2ccccc2)CC(C)CO)nc1 (stereo unspecified)

>  <unit.of.measure>
%

>  <cytotoxicity at 10 µM>
9.11

$$$$
>  <molecule>
c1csc(CN2Cc3nc(CN4CCCC4)oc3C2)c1

>  <unit.of.measure>
%

>  <cytotoxicity at 10 µM>
4.59

$$$$
>  <molecule>
CCN(Cc1ccc2c(c1)OCCO2)C(=O)NCc1csc(C)n1

>  <unit.of.measure>
%

>  <cytotoxicity at 10 µM>
-5.16

$$$$
>  <molecule>
COCC(=O)N1C[C@H](N(C)Cc2cncnc2)[C@H]2OCCC[C@H]21

>  <unit.of.measure>
%

>  <cytotoxicity at 10 µM>
-99.2

$$$$
>  <molecule>
CC1CN(C)c2ccccc2N(C(=O)c2c[nH]c(C(C)C)n2)C1 (stereo unspecified)

>  <unit.of.measure>
%

>  <cytotoxicity at 10 µM>
3.61

$$$$
>  <molecule>
Cc1ccc2c(n1)N(CCN(C)C)CCN(C(=O)N1CCOCC1)C2

>  <unit.of.measure>
%

>  <cytotoxicity at 10 µM>
-73.1

$$$$
>  <molecule>
c1cnc(N2CCOCC3(CN(Cc4cc[nH]n4)CCO3)C2)nc1 (stereo unspecified)

>  <unit.of.measure>
%

>  <cytotoxicity at 10 µM>
10

$$$$
>  <molecule>
CSCC(CCO)NC(=O)Nc1ccc(Br)cc1 (stereo unspecified)

>  <unit.of.measure>
%

>  <cytotoxicity at 10 µM>
-12.2

$$$$
>  <molecule>
COCc1cc(NCCc2ccc(OC)cc2)n2nccc2n1

>  <unit.of.measure>
%

>  <cytotoxicity at 10 µM>
0.266

$$$$
>  <molecule>
COCCOc1ncccc1C(=O)N(C)c1ccc(OC)nc1

>  <unit.of.measure>
%

>  <cytotoxicity at 10 µM>
-44.4

$$$$
>  <molecule>
Cc1nc(C2CCCN2Cc2cc(=O)n(C)c(=O)n2C)no1 (stereo unspecified)

>  <unit.of.measure>
%

>  <cytotoxicity at 10 µM>
-0.222

$$$$
>  <molecule>
Cc1ncnc2c1CCN(C(=O)c1ccncc1)CC2

>  <unit.of.measure>
%

>  <cytotoxicity at 10 µM>
12

$$$$
>  <molecule>
Cc1cccnc1CN(C)C(C(=O)O)c1ccc(C(C)(C)C#N)cc1 (stereo unspecified)

>  <unit.of.measure>
%

>  <cytotoxicity at 10 µM>
0.566

$$$$
